Kindly state IC50 for each of the entries shown.
Write down the numeric answer in nM and omit the unit.

The molecule "FC(F)(F)c1cc(SCc2ccc(Cl)c(Cl)c2)nc2cc3c(cc12)OCO3" , tested on GST-PAD4 (Homo sapiens, UniProt Q9UM07), showed IC50 of 1880

The molecule "Cc1ccc(/C=c2/sc3ncnn3c2=O)o1" , tested on GST-PAD4 (Homo sapiens, UniProt Q9UM07), showed IC50 of 1400

###

Kindly state Ki for each of the entries shown.

The compound "FC(F)(F)c1cc(SCc2ccc(Cl)c(Cl)c2)nc2cc3c(cc12)OCO3" , tested on GST-PAD4 (Homo sapiens), showed Ki of 1000 nM

The compound "Cc1ccc(/C=c2/sc3ncnn3c2=O)o1" , tested on GST-PAD4 (Homo sapiens), showed Ki of 940 nM

All figures here come from paper PMC6539144.
